Value source: patent US10988459B2

- target: human RIP1 kinase domain (2-375) (Homo sapiens (Human))
- Sequence (Q13546 2-375): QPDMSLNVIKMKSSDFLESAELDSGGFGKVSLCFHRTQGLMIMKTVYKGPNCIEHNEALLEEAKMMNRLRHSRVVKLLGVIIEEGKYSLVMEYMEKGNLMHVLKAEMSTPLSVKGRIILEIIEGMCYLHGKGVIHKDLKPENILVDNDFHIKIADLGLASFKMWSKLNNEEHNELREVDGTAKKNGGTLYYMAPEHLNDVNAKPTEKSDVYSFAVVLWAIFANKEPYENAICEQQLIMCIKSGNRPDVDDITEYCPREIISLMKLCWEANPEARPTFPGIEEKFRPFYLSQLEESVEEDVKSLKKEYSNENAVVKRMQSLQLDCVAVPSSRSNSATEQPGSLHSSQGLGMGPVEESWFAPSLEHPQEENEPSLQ
- experimentNotes: biochemical
- Type: biochemical
- testParameters: Table 5; apparent Ki (Morrison tight-binding fit); 50 nM RIP1 kinase domain, 50 uM ATP, 2 hours incubation; read-out: Ki
pKi: −log10 of the molar value.
Short version: pKi at least 7 is Y, less is N.

Example entries and their recorded answers appear below.
- molecule: "CN1C(=O)[C@@H](NC(=O)c2ncn(Cc3ccccc3)n2)CCn2nc(CCCN3CCC(F)(F)C3)cc21 [Example 739]"
  target: "human RIP1 kinase domain (2-375) (Homo sapiens (Human))"
  classification: "Y"
- molecule: "CN1C(=O)[C@@H](NC(=O)c2cc3n(n2)CCC[C@@H]3c2ccccc2F)COc2ccccc21 [Example 709]"
  target: "human RIP1 kinase domain (2-375) (Homo sapiens (Human))"
  classification: "Y"
- molecule: "COCCNCc1cc2n(n1)CC[C@H](NC(=O)c1ncn(Cc3ccccc3)n1)C(=O)N2C (single isomer, unassigned) [Example 728]"
  target: "human RIP1 kinase domain (2-375) (Homo sapiens (Human))"
  classification: "N"

Item CN1C(=O)[C@@H](NC(=O)c2ncn(Cc3ccccc3)n2)CCn2nc(CN3CCC(F)(F)C3)cc21 (single isomer, unassigned) [Example 727] with pKi of 7 or above?
Y

API: above_or_equal(metric=pKi, cutoff=7) for item CC[C@@]1(C)OCc2cnc(C(=O)N[C@H]3COc4ccccc4N(C)C3=O)cc21 (single isomer, unassigned) [Example 765]
Y

Threshold query (pKi >= 7) on CN1C(=O)C(NC(=O)c2ncn(Cc3ccccc3)n2)CCn2nc(CN3CCC(F)(F)C3)cc21 (single isomer, unassigned) [Example 719]
N

Item CN1C(=O)C(NC(=O)c2ncn(Cc3ccccc3)n2)CCn2nc(CN3CC(F)C3)cc21 (single isomer, unassigned) [Example 721] with pKi of 7 or above?
N

hey, is pKi for this one >= 7? CN1C(=O)[C@@H](NC(=O)c2nc3n(n2)[C@H](c2ccccc2)CCC3)COc2ccccc21 [Example 735]
Y

Is pKi at least 7? Consider CN1C(=O)[C@@H](NC(=O)c2cc3c(Br)cccc3cn2)CCn2nccc21 (racemic) [Example 700]
N

Check if pKi >= 7 (inclusive). Item: CN1C(=O)[C@@H](NC(=O)c2cc3c(cn2)CO[C@]3(C)C(F)(F)F)COc2ccccc21 [Example 742]
Y

Record CN1C(=O)[C@H](NC(=O)c2ncn(Cc3ccccc3)n2)CCn2nc(CCCN3CCOCC3)cc21 (single isomer, unassigned) [Example 738] ; criterion: pKi no lower than 7. Met?
N

Tell me whether pKi is at least 7 here: COC1CN(Cc2cc3n(n2)CC[C@H](NC(=O)c2ncn(Cc4ccccc4)n2)C(=O)N3C)C1 (single isomer, unassigned) [Example 725]
N

# check: pKi of CN1C(=O)[C@@H](NC(=O)c2nc3n(n2)CCNC3C(F)(F)F)COc2ccccc21 (stereo partly shown) [Example 731] is greater than or equal to 7
N
